The values you see were collected from the supplement of paper PMC10307832.

Tested on: HCC-366
experiment-notes: relative viability (nuclei count vs DMSO), 5 days (fraction); higher = more cells survive
condition-info: first compound 0.08 µM
measured-quantity: relative viability

The value of relative viability measured for the compound CCCCCCCCCCCC1=C(O)C(=O)C=C(O)C1=O [Embelin] + O=C(c1cc(Cc2n[nH]c(=O)c3ccccc23)ccc1F)N1CCN(C(=O)C2CC2)CC1 [Olaparib] (partner 8 µM) turned out to be 0.335

Please fill in: relative viability reported for CCCCCCCCCCCC1=C(O)C(=O)C=C(O)C1=O [Embelin] + Nc1nc2[nH]cc(CCc3ccc(C(=O)N[C@@H](CCC(=O)O)C(=O)O)cc3)c2c(=O)[nH]1 [Pemetrexed] (partner 0.2 µM) = 0.161

Value of relative viability reported for the compound CCCCCCCCCCCC1=C(O)C(=O)C=C(O)C1=O [Embelin] + Cc1nc(NC(=O)N2CCC[C@H]2C(N)=O)sc1-c1ccnc(C(C)(C)C(F)(F)F)c1 [Alpelisib] (partner 2 µM) is 0.411

Entry CCCCCCCCCCCC1=C(O)C(=O)C=C(O)C1=O [Embelin] + COc1cccc2cc(-c3nc([C@H]4CC[C@H](C(=O)O)CC4)n4ncnc(N)c34)[nH]c12 [OSI-027] (partner 0.5 µM) ; relative viability = 0.926

Reported relative viability ( CCCCCCCCCCCC1=C(O)C(=O)C=C(O)C1=O [Embelin] + CC(=O)Nc1cccc(-n2c(=O)n(C3CC3)c(=O)c3c(Nc4ccc(I)cc4F)n(C)c(=O)c(C)c32)c1 [Trametinib] (partner 0.02 µM) ) = 0.385

Briefly, relative viability measured for CCCCCCCCCCCC1=C(O)C(=O)C=C(O)C1=O [Embelin] + CS(=O)(=O)N1CCN(Cc2cc3nc(-c4cccc5[nH]ncc45)nc(N4CCOCC4)c3s2)CC1 [Pictilisib] (partner 1 µM) : 0.151

Value of relative viability reported for the compound CCCCCCCCCCCC1=C(O)C(=O)C=C(O)C1=O [Embelin] + C[C@@H](Oc1cc(-c2cnn(C3CCNCC3)c2)cnc1N)c1c(Cl)ccc(F)c1Cl [Crizotinib] (partner 1 µM) is 0.633

----------
Tested on: NCI-H2228
experiment-notes: relative viability (nuclei count vs DMSO), 5 days (fraction); higher = more cells survive
condition-info: first compound 8 µM
measured-quantity: relative viability
Just the number, please, no unit after it.

Record for CCCCCCCCCCCC1=C(O)C(=O)C=C(O)C1=O [Embelin] + CC1(C)CCC(c2ccc(Cl)cc2)=C(CN2CCN(c3ccc(C(=O)NS(=O)(=O)c4ccc(N[C@H](CCN5CCOCC5)CSc5ccccc5)c(S(=O)(=O)C(F)(F)F)c4)cc3)CC2)C1 [Navitoclax] (partner 0.5 µM) under target or system NCI-H2228: relative viability reported as 0.604

Lab note: compound CCCCCCCCCCCC1=C(O)C(=O)C=C(O)C1=O [Embelin] + Cc1nc(Nc2ncc(C(=O)Nc3c(C)cccc3Cl)s2)cc(N2CCN(CCO)CC2)n1 [Dasatinib] (partner 0.075 µM) tested on NCI-H2228; recorded relative viability was 0.396

----------
System: NCI-H1975
experiment-notes: relative viability (nuclei count vs DMSO), 5 days (fraction); higher = more cells survive
condition-info: first compound 4 µM
So I've got a bunch of molecules here, and I need their relative viability values.
Give your answer as a number; write no unit.

Recorded relative viability (molecule Clc1ccc(Nc2nnc(Cc3ccncc3)c3ccccc23)cc1 [Vatalanib] + Cc1nc(Nc2ncc(C(=O)Nc3c(C)cccc3Cl)s2)cc(N2CCN(CCO)CC2)n1 [Dasatinib] (partner 0.075 µM) ): 0.287

// C[C@@H]1CN(CC(=O)Nc2ccc3c(c2)Cc2cccc(-c4cc(=O)cc(N5CCOCC5)o4)c2S3)C[C@H](C)O1 + CC(=O)Nc1cccc(-n2c(=O)n(C3CC3)c(=O)c3c(Nc4ccc(I)cc4F)n(C)c(=O)c(C)c32)c1 [Trametinib] (partner 0.02 µM) : relative viability value = 0.33

// C[C@@H]1CN(CC(=O)Nc2ccc3c(c2)Cc2cccc(-c4cc(=O)cc(N5CCOCC5)o4)c2S3)C[C@H](C)O1 + C[C@]1(O)C[C@@H](c2nc(-c3ccc4ccc(-c5ccccc5)nc4c3)c3c(N)nccn32)C1 [Linsitinib] (partner 1 µM) : relative viability value = 0.8

Measured relative viability of COc1cc(N2CCC(C(N)=O)CC2)ccc1Nc1nc(N)c(Cl)c(Nc2ccccc2S(=O)(=O)C(C)C)n1 [HG-5-88-01] + COc1cc2c(Oc3ccc(NC(=O)C4(C(=O)Nc5ccc(F)cc5)CC4)cc3F)ccnc2cc1OCCCN1CCOCC1 [Foretinib] (partner 0.25 µM) : 0.397

Reported relative viability of C[C@@H]1CN(CC(=O)Nc2ccc3c(c2)Cc2cccc(-c4cc(=O)cc(N5CCOCC5)o4)c2S3)C[C@H](C)O1 + O=C(c1cc(Cc2n[nH]c(=O)c3ccccc23)ccc1F)N1CCN(C(=O)C2CC2)CC1 [Olaparib] (partner 8 µM) : 0.274

----------
Record form. Attribute: relative viability. Fill in for each entry.
Tested on: NCI-H1944
experiment-notes: relative viability (nuclei count vs DMSO), 5 days (fraction); higher = more cells survive
condition-info: first compound 0.1265 µM

Per the record, C[C@@H]1CN(CC(=O)Nc2ccc3c(c2)Cc2cccc(-c4cc(=O)cc(N5CCOCC5)o4)c2S3)C[C@H](C)O1 + CC1(C)CCC(c2ccc(Cl)cc2)=C(CN2CCN(c3ccc(C(=O)NS(=O)(=O)c4ccc(N[C@H](CCN5CCOCC5)CSc5ccccc5)c(S(=O)(=O)C(F)(F)F)c4)cc3)CC2)C1 [Navitoclax] (partner 0.5 µM) has relative viability of 1.02

relative viability reading for Clc1ccc(Nc2nnc(Cc3ccncc3)c3ccccc23)cc1 [Vatalanib] + N=C(N)NC(=N)NCCc1ccccc1 [Phenformin] (partner 250 µM) : 0.198

Value of relative viability reported for the molecule COc1cc(N2CCC(C(N)=O)CC2)ccc1Nc1nc(N)c(Cl)c(Nc2ccccc2S(=O)(=O)C(C)C)n1 [HG-5-88-01] + CC(=O)Nc1cccc(-n2c(=O)n(C3CC3)c(=O)c3c(Nc4ccc(I)cc4F)n(C)c(=O)c(C)c32)c1 [Trametinib] (partner 0.02 µM) is 0.48

Record summary for C[C@@H]1CN(CC(=O)Nc2ccc3c(c2)Cc2cccc(-c4cc(=O)cc(N5CCOCC5)o4)c2S3)C[C@H](C)O1 + CCNC(=O)c1noc(-c2cc(C(C)C)c(O)cc2O)c1-c1ccc(CN2CCOCC2)cc1 [Luminespib] (partner 0.01 µM) : reported relative viability = 0.729

Looking up COc1cc(N2CCC(C(N)=O)CC2)ccc1Nc1nc(N)c(Cl)c(Nc2ccccc2S(=O)(=O)C(C)C)n1 [HG-5-88-01] + NC(=O)Nc1cc(-c2cccc(F)c2)sc1C(=O)N[C@H]1CCCNC1 [AZD7762] (partner 0.2 µM) , I see its relative viability listed as 0.503

// relative viability lookup, molecule = C[C@@H]1CN(CC(=O)Nc2ccc3c(c2)Cc2cccc(-c4cc(=O)cc(N5CCOCC5)o4)c2S3)C[C@H](C)O1 + CS(=O)(=O)CCNCc1ccc(-c2ccc3ncnc(Nc4ccc(OCc5cccc(F)c5)c(Cl)c4)c3c2)o1 [Lapatinib] (partner 2 µM) , result: 0.803

// relative viability lookup, molecule = COc1cc(N2CCC(C(N)=O)CC2)ccc1Nc1nc(N)c(Cl)c(Nc2ccccc2S(=O)(=O)C(C)C)n1 [HG-5-88-01] + CS(=O)(=O)N1CCN(Cc2cc3nc(-c4cccc5[nH]ncc45)nc(N4CCOCC4)c3s2)CC1 [Pictilisib] (partner 1 µM) , result: 0.341

// relative viability value for Clc1ccc(Nc2nnc(Cc3ccncc3)c3ccccc23)cc1 [Vatalanib] + C[C@]1(O)C[C@@H](c2nc(-c3ccc4ccc(-c5ccccc5)nc4c3)c3c(N)nccn32)C1 [Linsitinib] (partner 1 µM) : 0.997

----------
Kindly supply the reported relative viability values for the records listed here.
System: NCI-H1734
experiment-notes: relative viability (nuclei count vs DMSO), 5 days (fraction); higher = more cells survive
condition-info: first compound 0.04 µM
When you answer, write just the number.

Reported relative viability of Clc1ccc(Nc2nnc(Cc3ccncc3)c3ccccc23)cc1 [Vatalanib] + COc1cc2c(Oc3ccc(NC(=O)C4(C(=O)Nc5ccc(F)cc5)CC4)cc3F)ccnc2cc1OCCCN1CCOCC1 [Foretinib] (partner 0.25 µM) : 0.878

Short answer for C[C@@H]1CN(CC(=O)Nc2ccc3c(c2)Cc2cccc(-c4cc(=O)cc(N5CCOCC5)o4)c2S3)C[C@H](C)O1 + Cc1cc(Nc2cc(N3CCN(C)CC3)nc(Sc3ccc(NC(=O)C4CC4)cc3)n2)n[nH]1 [Tozasertib] (partner 0.1 µM) : relative viability was 0.286

The compound COc1cc(N2CCC(C(N)=O)CC2)ccc1Nc1nc(N)c(Cl)c(Nc2ccccc2S(=O)(=O)C(C)C)n1 [HG-5-88-01] + C[C@]1(O)C[C@@H](c2nc(-c3ccc4ccc(-c5ccccc5)nc4c3)c3c(N)nccn32)C1 [Linsitinib] (partner 1 µM) showed relative viability equal to 0.811

Record C[C@@H]1CN(CC(=O)Nc2ccc3c(c2)Cc2cccc(-c4cc(=O)cc(N5CCOCC5)o4)c2S3)C[C@H](C)O1 + NC(=O)Nc1cc(-c2cccc(F)c2)sc1C(=O)N[C@H]1CCCNC1 [AZD7762] (partner 0.2 µM) , field relative viability: 0.569

Summary for this compound, COc1cc(N2CCC(C(N)=O)CC2)ccc1Nc1nc(N)c(Cl)c(Nc2ccccc2S(=O)(=O)C(C)C)n1 [HG-5-88-01] + COc1cccc2cc(-c3nc([C@H]4CC[C@H](C(=O)O)CC4)n4ncnc(N)c34)[nH]c12 [OSI-027] (partner 0.5 µM) : relative viability is 0.59

Briefly, relative viability measured for COc1cc(N2CCC(C(N)=O)CC2)ccc1Nc1nc(N)c(Cl)c(Nc2ccccc2S(=O)(=O)C(C)C)n1 [HG-5-88-01] + Cc1nc(Nc2ncc(C(=O)Nc3c(C)cccc3Cl)s2)cc(N2CCN(CCO)CC2)n1 [Dasatinib] (partner 0.075 µM) : 0.412

Given item COc1cc(N2CCC(C(N)=O)CC2)ccc1Nc1nc(N)c(Cl)c(Nc2ccccc2S(=O)(=O)C(C)C)n1 [HG-5-88-01] + CS(=O)(=O)N1CCN(Cc2cc3nc(-c4cccc5[nH]ncc45)nc(N4CCOCC4)c3s2)CC1 [Pictilisib] (partner 1 µM) , the value recorded as its relative viability is 0.405

relative viability reading for C[C@@H]1CN(CC(=O)Nc2ccc3c(c2)Cc2cccc(-c4cc(=O)cc(N5CCOCC5)o4)c2S3)C[C@H](C)O1 + CC(=O)Nc1cccc(-n2c(=O)n(C3CC3)c(=O)c3c(Nc4ccc(I)cc4F)n(C)c(=O)c(C)c32)c1 [Trametinib] (partner 0.02 µM) : 0.698

Input Clc1ccc(Nc2nnc(Cc3ccncc3)c3ccccc23)cc1 [Vatalanib] + COc1cccc2cc(-c3nc([C@H]4CC[C@H](C(=O)O)CC4)n4ncnc(N)c34)[nH]c12 [OSI-027] (partner 0.5 µM) . Output relative viability: 0.675

Clc1ccc(Nc2nnc(Cc3ccncc3)c3ccccc23)cc1 [Vatalanib] + CC1(C)CCC(c2ccc(Cl)cc2)=C(CN2CCN(c3ccc(C(=O)NS(=O)(=O)c4ccc(N[C@H](CCN5CCOCC5)CSc5ccccc5)c(S(=O)(=O)C(F)(F)F)c4)cc3)CC2)C1 [Navitoclax] (partner 0.5 µM) yielded relative viability of 0.921
